Tested on: Staphylococcus aureus ATCC 6538P
assayExplanation: In vitro assay of antibacterial activity (agar dilution MIC)
Assay type: cell-based
testSettings: organism code AA, BHI agar, 35-37° C., 20 to 24 hours
measuredQuantity: MIC (µg/mL)

CCC1OC(=O)C(C)C(=O)C(C)C(OC2OC(C)CC(N(C)C)C2O)C(C)(OCC=Cc2cnc3ccccc3c2)CC(C)C(N)C(C)C(O)C1(C)O (stereo not shown) | 0.78
CC[C@H]1OC(=O)[C@H](C)[C@@H](O[C@H]2C[C@@](C)(OC)[C@@H](O)[C@H](C)O2)[C@H](C)[C@@H](O[C@@H]2O[C@H](C)C[C@H](N(C)C)[C@H]2O)[C@](C)(O)C[C@@H](C)C(=O)[C@H](C)[C@@H](O)[C@]1(C)O [Ery. A, Erythromycin A, reference compound] | 0.2

[a] CCC1OC(=O)C(C)C(=O)C(C)C(OC2OC(C)CC(N(C)C)C2O)C(C)(OCC=Cc2cnc3ccccc3c2)CC(C)C2NC(=O)OC(C2C)C1(C)O (stereo not shown)
[b] CCC1OC(=O)C(C)C(=O)C(C)C(OC2OC(C)CC(N(C)C)C2O)C(C)(OCC=Cc2cnc3ccccc3c2)CC(C)C(N)C(C)C2OC(=O)OC12C (stereo not shown)
Two entries are listed, a and b . Which one carries the higher MIC? State the label of the item chosen. a
(a: 0.39 µg/mL, b: 0.2 µg/mL)
